# System: sonic hedgehog pathway
# assay-text: Human hedgehog reporter assay HEPM-GliLuc (HGL)
# Assay type: cell-based
# study-conditions: HepM human embryonic palatal mesenchymal cells, Gli-luciferase reporter
pEC50: −log10 of the molar value. Structures can show the parent of a compound that is named as a salt.
quantity: pEC50

| compound | system-tested | quantity | reported-value |
| --- | --- | --- | --- |
| CN[C@H]1CC[C@@H](N(Cc2cc(-c3ccccn3)ccc2OC)C(=O)c2sc3c(F)ccc(F)c3c2Cl)CC1 [Compound 367, dihydrochloride] | sonic hedgehog pathway | pEC50 | > 7.30 |
| CN[C@H]1CC[C@H](N(Cc2cc(-c3ccc(C(C)=O)cc3)ccc2F)C(=O)c2sc3ccccc3c2Cl)CC1 [Compound 419, trifluoroacetate] | sonic hedgehog pathway | pEC50 | 6.00 to 6.60 |
| CCOc1ccc(-c2cnc(NC)nc2)cc1CN(C(=O)c1sc2ccccc2c1Cl)[C@H]1CC[C@H](NC)CC1 [Compound 402, dihydrochloride] | sonic hedgehog pathway | pEC50 | 6.00 to 6.60 |

stdin: Please report the recorded pEC50 for CN[C@H]1CC[C@@H](N(Cc2cc(-c3ccc(C(=O)C(F)(F)F)cc3)ccc2OC)C(=O)c2sc3ccccc3c2Cl)CC1 [Compound 302, trifluoroacetate] .
stdout: > 7.30

stdin: Now consider CN[C@H]1CC[C@@H](N(Cc2cc(-c3ccc(CO)cc3)ccc2OC)C(=O)c2sc3ccccc3c2Cl)CC1 [Compound 329, hydrochloride] and answer again.
stdout: > 7.30

stdin: Now consider `CN[C@H]1CC[C@@H](N(Cc2cc(-c3ccnc(N)c3)ccc2OC)C(=O)c2sc3c(F)ccc(F)c3c2Cl)CC1` and answer again.
stdout: > 7.30
